The entries below are paired with their reported pKi.
Study target: α2 adrenergic receptors (Rattus norvegicus)
Sequence (P22909 1-465): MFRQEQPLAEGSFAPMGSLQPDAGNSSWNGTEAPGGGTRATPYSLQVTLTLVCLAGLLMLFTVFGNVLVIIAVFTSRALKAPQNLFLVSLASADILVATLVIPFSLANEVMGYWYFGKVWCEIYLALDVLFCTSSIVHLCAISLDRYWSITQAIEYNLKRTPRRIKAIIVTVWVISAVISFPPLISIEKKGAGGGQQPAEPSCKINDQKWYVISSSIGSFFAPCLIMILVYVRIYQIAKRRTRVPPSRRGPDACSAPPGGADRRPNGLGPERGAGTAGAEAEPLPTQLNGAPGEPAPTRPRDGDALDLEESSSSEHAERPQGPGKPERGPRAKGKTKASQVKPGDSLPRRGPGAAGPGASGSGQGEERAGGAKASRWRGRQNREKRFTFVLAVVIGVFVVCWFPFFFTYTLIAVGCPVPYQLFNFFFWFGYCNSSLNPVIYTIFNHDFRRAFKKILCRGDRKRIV
pKi: −log10 of the molar value.
Outcome measure: pKi

COc1cc2c(cc1OC)CN1CCc3cc(O)ccc3C1C2 (single isomer, unassigned; (+)) [(+) STB 6]
6.05
Oc1ccc2c(c1)CCN1Cc3ccccc3CC21 (single isomer, unassigned; (-)) [(-) STB 4]
6.51
c1ccc2c(c1)CC1c3ccccc3CCN1C2 (single isomer, unassigned) [Berbine (-)]
6.85
COc1cc2c(cc1OC)CN1CCc3cc(O)ccc3C1C2 (single isomer, unassigned; (-)) [(-) STB 6]
5.99
Oc1ccc2c(c1)CCN1Cc3ccccc3CC21 (single isomer, unassigned; (+)) [(+) STB 4]
6.49
c1ccc2c(c1)CC1c3ccccc3CCN1C2 (single isomer, unassigned) [Berbine (+)]
6.24

* * *

Procedure details: Toxicity in the mouse (LD50)
Details: in vivo, oral, male mice, 800 mg.kg^-1 (limit of solubility)
Outcome measure: mortality

COc1cc2c(cc1OC)CN1CCc3cc(OC(=O)Cc4ccccc4)ccc3C1C2 (single isomer, unassigned; (-)) [(-) STB 52]
30%
